The next entries give measured IC50 for Mcl-1 protein (residues 171-323) (Homo sapiens).
quantity_name: IC50 (nM)

INSERT INTO results (molecule, uom, value) VALUES
  ('CO[C@H]1C2=CC(C)(C2)[C@H](C)CS(=O)(=O)NC(=O)c2ccc3c(c2)N(C[C@@H]2CC[C@H]21)C[C@@]1(CCCc2cc(Cl)ccc21)CO3 (single isomer, unassigned) [Cpd. No. 18 (Isomer 2)]', 'nM', 4.9);

P. CO[C@H]1C2=CC(C2)CC(C)S(=O)(=O)NC(=O)c2ccc3c(c2)N(C[C@@H]2CC[C@H]21)C[C@@]1(CCCc2cc(Cl)ccc21)CO3 (mixture of isomers) [11 (mixture)]
Q. CO[C@H]1C2=C[C@@H](C2)[C@H](C)[C@@H](C)S(=O)(=O)NC(=O)c2ccc3c(c2)N(C[C@@H]2CC[C@H]21)C[C@@]1(CCCc2c1ccc(Cl)c2F)CS3 (single isomer, unassigned) [22 (isomer 1)]
q: Identify the entry with the smaller IC50: P or Q . Refer to your chosen item by its label in the answer.
a: P

* * *

The next entries give measured IC50 for Mcl-1 protein (residues 171-323) (Homo sapiens, UniProt Q07820).
quantity_name: IC50 (nM)

INSERT INTO assay_data (compound, target_desc, quantity_name, uom, value) VALUES
  ('C[C@@H]1[C@@H](C)S(=O)(=O)NC(=O)c2ccc3c(c2)N(C[C@@H]2CC[C@H]2[C@@H](OCC2CCN(C)CC2)C2=C[C@H]1C2)C[C@@]1(CCCc2c1ccc(Cl)c2F)CO3', 'Mcl-1 protein (residues 171-323) (Homo sapiens, UniProt Q07820)', 'IC50', 'nM', 13),
  ('CO[C@H]1C2=CC(C2)[C@@H](C)[C@H](C)S(=O)(=O)NC(=O)c2ccc3c(c2)N(C[C@@H]2CC[C@H]21)C[C@@]1(CCCc2cc(Cl)ccc21)CO3 (single isomer, unassigned) [12 (Isomer 1)]', 'Mcl-1 protein (residues 171-323) (Homo sapiens, UniProt Q07820)', 'IC50', 'nM', 4.8),
  ('CO[C@H]1C2=CC(C2)C(C)(C)CS(=O)(=O)NC(=O)c2ccc3c(c2)N(C[C@@H]2CC[C@H]21)C[C@@]1(CCCc2cc(Cl)ccc21)CO3 (single isomer, unassigned) [Cpd. No. 5 (Isomer 1)]', 'Mcl-1 protein (residues 171-323) (Homo sapiens, UniProt Q07820)', 'IC50', 'nM', 4.8);

1. COCCO[C@H]1C2=CC(C2)[C@H](C)[C@@H](C)S(=O)(=O)NC(=O)c2ccc3c(c2)N(C[C@@H]2CC[C@H]21)C[C@@]1(CCCc2cc(Cl)ccc21)CO3 (mixture of isomers) [16 (mixture)]
2. CO[C@@H]1C2=CC(C2)CC(C)S(=O)(=O)NC(=O)c2ccc3c(c2)N(C[C@@H]2CC[C@H]21)C[C@@]1(CCCc2cc(Cl)ccc21)CO3 (mixture of isomers) [7 (mixture)]
q: Identify the entry with the smaller IC50: 1 or 2 . Refer to your chosen item by its label in the answer.
a: 2

I. CO[C@H]1C2=CC(C2)[C@H](C)CS(=O)(=O)NC(=O)c2ccc3c(c2)N(C[C@@H]2CC[C@H]21)C[C@@]1(CCCc2cc(Cl)ccc21)CO3 (single isomer, unassigned) [Cpd. No. 14 (Isomer 1)]
II. C[C@@H]1[C@@H](C)S(=O)(=O)NC(=O)c2ccc3c(c2)N(C[C@@H]2CC[C@H]2[C@@H](OCCN2CCS(=O)(=O)CC2)C2=C[C@H]1C2)C[C@@]1(CCCc2c1ccc(Cl)c2F)CO3
III. CO[C@@]1(CN2CCN3CCOC[C@@H]3C2)C2=C[C@@H](C2)[C@H](C)[C@@H](C)S(=O)(=O)NC(=O)c2ccc3c(c2)N(C[C@@H]2CC[C@H]21)C[C@@]1(CCCc2c1ccc(Cl)c2F)CO3
q: Hey, can you sort those compounds up there by IC50, smallest first? Please respond by ranking the labels in the order requested.
a: I, III, II
(I: 4.7 nM, III: 7.4 nM, II: 13 nM)

a. CO[C@H]1C2=CC(C2)CC(C)S(=O)(=O)NC(=O)c2ccc3c(c2)N(C[C@@H]2CC[C@H]21)C[C@@]1(CCCc2cc(Cl)ccc21)CO3 (single isomer, unassigned) [11 (Isomer 2)]
b. CO[C@@]1(CN2CCNC(=O)C2)C2=C[C@@H](C2)[C@H](C)[C@@H](C)S(=O)(=O)NC(=O)c2ccc3c(c2)N(C[C@@H]2CC[C@H]21)C[C@@]1(CCCc2c1ccc(Cl)c2F)CO3
q: Compare the recorded IC50 of a and b ; state which is larger. Refer to your chosen item by its label in the answer.
a: b
(b: 13 nM, a: 6 nM)

1. C[C@@H]1[C@@H](C)S(=O)(=O)NC(=O)c2ccc3c(c2)N(C[C@@H]2CC[C@H]2[C@](O)(CN2CCN4CCOC[C@H]4C2)C2=C[C@H]1C2)C[C@@]1(CCCc2c1ccc(Cl)c2F)CO3
2. CCO[C@@]1(CN2CCN3CCOC[C@@H]3C2)C2=C[C@@H](C2)[C@H](C)[C@@H](C)S(=O)(=O)NC(=O)c2ccc3c(c2)N(C[C@@H]2CC[C@H]21)C[C@@]1(CCCc2c1ccc(Cl)c2F)CO3
3. CO[C@H]1C2=CC(CCS(=O)(=O)NC(=O)c3ccc4c(c3)N(C[C@@H]3CC[C@H]31)C[C@@]1(CCCc3cc(Cl)ccc31)CO4)C2 (single isomer, unassigned) [Cpd. No. 1 (Isomer 2)]
q: hey, can you rank those compounds up there by IC50? biggest number first please Please respond by ranking the labels in the order requested.
a: 1, 2, 3
(1: 18 nM, 2: 11 nM, 3: 5.7 nM)

I. CO[C@@]1(CN2CCOCC2)C2=C[C@@H](C2)[C@H](C)[C@@H](C)S(=O)(=O)NC(=O)c2ccc3c(c2)N(C[C@@H]2CC[C@H]21)C[C@@]1(CCCc2c1ccc(Cl)c2F)CO3
II. CO[C@H]1C2=C[C@H](C2)[C@H](C)CS(=O)(=O)NC(=O)c2ccc3c(c2)N(C[C@@H]2CC[C@H]21)C[C@@]1(CCCc2c1ccc(Cl)c2F)CS3 (single isomer, unassigned) [24 (isomer 2)]
q: Compare the recorded IC50 of I and II ; state which is larger. Refer to your chosen item by its label in the answer.
a: I

* * *

- target_desc: Mcl-1 protein (residues 171-323) (Homo sapiens)
- Sequence (Q07820 171-323): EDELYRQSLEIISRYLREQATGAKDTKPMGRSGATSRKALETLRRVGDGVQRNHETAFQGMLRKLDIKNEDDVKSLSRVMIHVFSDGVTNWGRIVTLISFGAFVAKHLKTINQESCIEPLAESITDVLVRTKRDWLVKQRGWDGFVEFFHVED
pIC50: −log10 of the molar value.
quantity_name: pIC50

INSERT INTO results (compound, value) VALUES
  ('CO[C@H]1C2=C[C@H](C2)[C@H](C)[C@@H](C)S(=O)(=O)NC(=O)c2ccc3c(c2)N(C[C@@H]2CC[C@H]21)C[C@@]1(CCCc2c1ccc(Cl)c2F)CO3 (single isomer, unassigned) [Cpd. No. 17 (isomer 2)]', 7.92),
  ('CO[C@H]1C2=CC(C2)[C@@H](C)[C@H](C)S(=O)(=O)NC(=O)c2ccc3c(c2)N(C[C@@H]2CC[C@H]21)C[C@@]1(CCCc2cc(Cl)ccc21)CO3 (single isomer, unassigned) [12 (Isomer 2)]', 7.82),
  ('C[C@@H]1[C@@H](C)S(=O)(=O)NC(=O)c2ccc3c(c2)N(C[C@@H]2CC[C@H]2[C@@H](OCCN2CCN(C)CC2)C2=C[C@H]1C2)C[C@@]1(CCCc2c1ccc(Cl)c2F)CO3', 8.00);

* * *

- assay_name: Pharmacokinetic studies in mice (IV and PO)
- Type: in vivo
- condition_set: mouse, plasma, IV 2 mg/kg
quantity_name: clearance (mL/min/kg)

INSERT INTO assay_data (compound, value) VALUES
  ('CO[C@H]1/C=C/C[C@H](C)[C@@H](C)S(=O)(=O)NC(=O)c2ccc3c(c2)N(C[C@@H]2CC[C@H]21)C[C@@]1(CCCc2cc(Cl)ccc21)CO3 [AMG-176, reference compound]', 4.5),
  ('CO[C@H]1C2=C[C@@H](C2)[C@H](C)[C@@H](C)S(=O)(=O)NC(=O)c2ccc3c(c2)N(C[C@@H]2CC[C@H]21)C[C@@]1(CCCc2cc(Cl)ccc21)CO3 (single isomer, unassigned) [Cpd. No. 15 (isomer 1)]', 4.23),
  ('CO[C@H]1C2=C[C@@H](C2)[C@H](C)[C@@H](C)S(=O)(=O)NC(=O)c2ccc3c(c2)N(C[C@@H]2CC[C@H]21)C[C@@]1(CCCc2c1ccc(Cl)c2F)CO3 (single isomer, unassigned) [Cpd. No. 17 (isomer 1)]', 2.18);

* * *

- assay_name: Pharmacokinetic studies in mice (IV and PO)
- Assay type: in vivo
- condition_set: mouse, plasma, IV 2 mg/kg
quantity_name: AUC(0-inf) (ng·h/mL)

Example entries and their recorded answers appear below.
INSERT INTO measurements (molecule, quantity_name, uom, value) VALUES
  ('CO[C@H]1C2=C[C@@H](C2)[C@H](C)[C@@H](C)S(=O)(=O)NC(=O)c2ccc3c(c2)N(C[C@@H]2CC[C@H]21)C[C@@]1(CCCc2c1ccc(Cl)c2F)CO3 (single isomer, unassigned) [Cpd. No. 17 (isomer 1)]', 'AUC(0-inf)', 'ng·h/mL', 15200),
  ('CO[C@H]1C2=CC(C2)[C@H](C)CS(=O)(=O)NC(=O)c2ccc3c(c2)N(C[C@@H]2CC[C@H]21)C[C@@]1(CCCc2cc(Cl)ccc21)CO3 (single isomer, unassigned) [Cpd. No. 14 (Isomer 1)]', 'AUC(0-inf)', 'ng·h/mL', 4720);

P. COCCO[C@H]1C2=CC(C2)[C@H](C)[C@@H](C)S(=O)(=O)NC(=O)c2ccc3c(c2)N(C[C@@H]2CC[C@H]21)C[C@@]1(CCCc2cc(Cl)ccc21)CO3 (mixture of isomers) [16 (mixture)]
Q. CO[C@H]1C2=CC(C2)[C@H](C)[C@@H](C)S(=O)(=O)NC(=O)c2ccc3c(c2)N(C[C@@H]2CC[C@H]21)C[C@@]1(CCCc2cc(Cl)c(F)cc21)CO3 (single isomer, unassigned) [Cpd. No. 21 (isomer 1)]
q: Compare the recorded AUC(0-inf) of P and Q ; state which is larger. Refer to your chosen item by its label in the answer.
a: Q
